# MEASUREMENT DESCRIPTION: Caco-2 membrane permeability, improved method as used in the following Examples (96-well, 20 to 24 h preincubation)
# Type: in vitro ADME
# REPORTED CONDITIONS: human, Caco-2, Caco-2
Starred links: 1 amine or outer side, 2 acyl side, 3 side chain; linkers in the order of their positions; H or OH if unused. Positions of bridges follow the written chain, without caps; N, C: chain ends. Non-standard residues stand in square brackets, D forms with d. Residues, ends and D or L forms follow the SMILES beside them. *: point of attachment. NMePhe(3-Cl) = CN[C@@H](Cc1cccc(Cl)c1)C(=O)O; X15 = CN([C@H](CCN1CCOCC1)C(=O)[*:2])[*:1]; NMeF = CN[C@@H](Cc1ccccc1)C(=O)O; NMeGABA = CN(CCCC(=O)[*:2])[*:1]; Butyl(3-Me,3-OH) = CC(C)(O)CC*; NMeL = CN[C@@H](CC(C)C)C(=O)O; NMeV = CN[C@H](C(=O)O)C(C)C; NMeA = CN[C@@H](C)C(=O)O; Piperidide = C1CCN(*)CC1; CH2CMe2OH = CC(C)(O)C*; NBuGly = CCCCNCC(=O)O; NPrGly = CCCNCC(=O)O; X11 = FC(F)C(F)(F)C*; Bn = c1ccc(C*)cc1; Sar = CNCC(=O)O; tBu = CC(C)(C)*
ENDPOINT LABEL: Papp A→B at 180 min (×10⁻⁶ cm/s)
Write the number in ×10⁻⁶ cm/s without appending the unit.

Here is how some compounds turned out for Papp A→B at 180 min.
CC[C@H](C)[C@@H]1NC(=O)[C@H](C(C)C)N(C)C(=O)CCCN(C)C(=O)C[C@@H](C(=O)N2CCCCC2)NC(=O)[C@H](CC(C)C)N(C)C(=O)[C@H](CC(C)C)N(C)C(=O)[C@H]([C@@H](C)O)NC(=O)[C@H](CC(C)C)N(C)C(=O)[C@H](COCCC(C)(C)O)NC(=O)[C@H](Cc2cccc(Cl)c2)N(C)C(=O)[C@H](Cc2ccccc2)N(C)C1=O [pd435] ([NMeGABA][NMeV]I[NMeF][NMePhe(3-Cl)]S(Butyl(3-Me,3-OH))[NMeL]T[NMeL][NMeL]D-Piperidide; lactam N-11); 1.4
CCCN1CC(=O)N(C)[C@@H](Cc2ccccc2)C(=O)N[C@@H](COCC(F)(F)C(F)F)C(=O)N(C)[C@@H](CC(C)C)C(=O)N[C@@H]([C@@H](C)O)C(=O)N(C)CC(=O)N(C)[C@@H](Cc2ccccc2)C(=O)N(C)[C@@H](CC(C)C)C(=O)N[C@@H](COC(C)(C)C)C(=O)N(C)[C@@H](CC(C)C)C(=O)N[C@H](C(=O)N2CCCCC2)CC1=O [pd349] ([NPrGly][NMeF]S(X11)[NMeL]T[Sar][NMeF][NMeL]S(tBu)[NMeL]D-Piperidide; lactam N-11); 1.8
CCCCN1CC(=O)N(C)[C@H](CCN2CCOCC2)C(=O)N[C@H](C(=O)N2CCCCC2)CC(=O)N(C)[C@@H](C)C(=O)N[C@@H](CC(C)C)C(=O)N(C)[C@@H](CC(C)C)C(=O)N(C)[C@@H](Cc2ccccc2)C(=O)N[C@@H](CC(C)C)C(=O)N(C)[C@@H](Cc2ccccc2)C(=O)N(C)[C@@H](CC(C)C)C(=O)N[C@@H]([C@@H](C)O)C1=O [pd454] ([NMeA]L[NMeL][NMeF]L[NMeF][NMeL]T[NBuGly][X15]D-Piperidide; lactam N-11); 1.2
CCCN1CC(=O)N(C)[C@@H](Cc2cccc(Cl)c2)C(=O)N(C)[C@@H](CC(C)C)C(=O)N[C@@H](COC(C)(C)C)C(=O)N(C)[C@@H](CC(C)C)C(=O)N[C@H](C(=O)N2CCCCC2)CC(=O)N(C)CC(=O)N(C)[C@@H](Cc2ccccc2)C(=O)N[C@@H](COCC(C)(C)O)C(=O)N(C)[C@@H](CC(C)C)C(=O)N[C@@H]([C@@H](C)O)C1=O [pd430] ([Sar][NMeF]S(CH2CMe2OH)[NMeL]T[NPrGly][NMePhe(3-Cl)][NMeL]S(tBu)[NMeL]D-Piperidide; lactam N-11); 1.3

Now consider a different compound.
# input Consider the compound shown here: CC(C)C[C@H]1C(=O)N[C@@H]([C@@H](C)O)C(=O)N(C)CC(=O)N(C)[C@@H](Cc2ccccc2)C(=O)N(C)[C@@H](CC(C)C)C(=O)N[C@@H](COC(C)(C)C)C(=O)N(C)[C@@H](CC(C)C)C(=O)N[C@H](C(=O)N2CCCCC2)CC(=O)N(C)CC(=O)N(C)[C@@H](Cc2ccccc2)C(=O)N[C@@H](COCc2ccccc2)C(=O)N1C [pd369] ([Sar][NMeF]S(Bn)[NMeL]T[Sar][NMeF][NMeL]S(tBu)[NMeL]D-Piperidide; lactam N-11) What is its recorded Papp A→B at 180 min?
# output 3

----------
# MEASUREMENT DESCRIPTION: Caco-2 membrane permeability, improved method as used in the following Examples (96-well, 20 to 24 h preincubation)
# Type: in vitro ADME
# REPORTED CONDITIONS: human, Caco-2, Caco-2
Starred links: 1 amine or outer side, 2 acyl side, 3 side chain; linkers in the order of their positions; H or OH if unused. Positions of bridges follow the written chain, without caps; N, C: chain ends. Non-standard residues stand in square brackets, D forms with d. Residues, ends and D or L forms follow the SMILES beside them. *: point of attachment. X6 = CN([C@@H](CCN1CCC(F)(F)CC1)C(=O)[*:2])[*:1]; NMeF = CN[C@@H](Cc1ccccc1)C(=O)O; NMeL = CN[C@@H](CC(C)C)C(=O)O; NMeV = CN[C@H](C(=O)O)C(C)C; Piperidide = C1CCN(*)CC1; NBuGly = CCCCNCC(=O)O; Sar = CNCC(=O)O; Propyl = CCC*
ENDPOINT LABEL: Papp A→B at 180 min

CCCOC[C@@H]1NC(=O)[C@H](CC(C)C)N(C)C(=O)CN(C)C(=O)[C@H]([C@@H](C)O)NC(=O)[C@H](CC(C)C)N(C)C(=O)[C@H](CC(C)C)NC(=O)[C@H](Cc2ccccc2)N(C)C(=O)[C@@H](C(C)C)NC(=O)C[C@@H](C(=O)N2CCCCC2)NC(=O)[C@H](CC(C)C)N(C)C(=O)[C@H](Cc2ccccc2)N(C)C1=O [pd325] ([dV][NMeF]L[NMeL]T[Sar][NMeL]S(Propyl)[NMeF][NMeL]D-Piperidide; lactam N-11); 2.2 ×10⁻⁶ cm/s

Now consider a different compound.
# input Consider the compound shown here: CCCCN1CC(=O)N(C)[C@@H](Cc2ccccc2)C(=O)N[C@@H](CC(C)C)C(=O)N(C)[C@@H](CC(C)C)C(=O)N[C@@H]([C@@H](C)O)C(=O)N(C)CC(=O)N(C)[C@@H](Cc2ccccc2)C(=O)N(C)[C@@H](CCN2CCC(F)(F)CC2)C(=O)N[C@@H](CC(C)C)C(=O)N(C)[C@@H](C(C)C)C(=O)N[C@H](C(=O)N2CCCCC2)CC1=O [pd395] ([NBuGly][NMeF]L[NMeL]T[Sar][NMeF][X6]L[NMeV]D-Piperidide; lactam N-11) What is its recorded Papp A→B at 180 min?
# output 1.7 ×10⁻⁶ cm/s

----------
# MEASUREMENT DESCRIPTION: Caco-2 membrane permeability, improved method as used in the following Examples (96-well, 20 to 24 h preincubation)
# Format: in vitro ADME
# REPORTED CONDITIONS: human, Caco-2, Caco-2
Starred links: 1 amine or outer side, 2 acyl side, 3 side chain; linkers in the order of their positions; H or OH if unused. Positions of bridges follow the written chain, without caps; N, C: chain ends. Non-standard residues stand in square brackets, D forms with d. Residues, ends and D or L forms follow the SMILES beside them. *: point of attachment. Glu(NHSO2Me) = CS(=O)(=O)NC(=O)CC[C@H](N)C(=O)O; NMePhe(3-Cl) = CN[C@@H](Cc1cccc(Cl)c1)C(=O)O; X12 = CCCC[C@@H](O)[C@H](N[*:1])C(=O)[*:2]; X14 = O=C([C@H](CCc1ccccc1Cl)N[*:1])[*:2]; Gly(N-(CH2)2OEt) = CCOCCNCC(=O)O; NMeF = CN[C@@H](Cc1ccccc1)C(=O)O; NMeI = CC[C@H](C)[C@H](NC)C(=O)O; NMeL = CN[C@@H](CC(C)C)C(=O)O; NMeV = CN[C@H](C(=O)O)C(C)C; NMeAbu = CC[C@H](NC)C(=O)O; NPentylGly = CCCCCNCC(=O)O; NMeA = CN[C@@H](C)C(=O)O; Piperidide = C1CCN(*)CC1; Me2NCH2CH2 = CN(C)CC*; NBuGly = CCCCNCC(=O)O; Isopentyl = CC(C)CC*; Sar = CNCC(=O)O; tBu = CC(C)(C)*
ENDPOINT LABEL: Papp A→B at 180 min (×10⁻⁶ cm/s)
Write the number in ×10⁻⁶ cm/s without appending the unit.

# input Consider the molecule shown here: CCCCN1CC(=O)N(C)[C@@H](Cc2ccccc2)C(=O)N[C@@H](COCCN(C)C)C(=O)N(C)[C@@H](CC(C)C)C(=O)N[C@@H]([C@@H](C)O)C(=O)N(C)CC(=O)N(C)[C@@H](Cc2ccccc2)C(=O)N(C)[C@@H](CC)C(=O)N[C@@H](COCCC(C)C)C(=O)N(C)[C@@H](CC(C)C)C(=O)N[C@H](C(=O)N2CCCCC2)CC1=O [pd58] ([NBuGly][NMeF]S(Me2NCH2CH2)[NMeL]T[Sar][NMeF][NMeAbu]S(Isopentyl)[NMeL]D-Piperidide; lactam N-11) What is its recorded Papp A→B at 180 min?
# output 0.021

# input Consider the molecule shown here: CCOCCN1CC(=O)N(C)[C@@H](CC(C)C)C(=O)N[C@H](C(=O)N2CCCCC2)CC(=O)N(C)[C@@H](C(C)C)C(=O)N[C@@H](CC(C)C)C(=O)N(C)[C@@H](CC)C(=O)N(C)[C@@H](Cc2ccccc2)C(=O)N[C@@H](CC(C)C)C(=O)N(C)[C@@H](Cc2ccccc2)C(=O)N(C)[C@@H](CC)C(=O)N[C@@H]([C@@H](C)O)C1=O [pd417] ([NMeV]L[NMeAbu][NMeF]L[NMeF][NMeAbu]T[Gly(N-(CH2)2OEt)][NMeL]D-Piperidide; lactam N-11) What is its recorded Papp A→B at 180 min?
# output 1

# input Consider the molecule shown here: CC(=O)NCCCC[C@@H]1NC(=O)[C@H](CC(C)C)N(C)C(=O)[C@H](CC(C)C)NC(=O)[C@H](Cc2ccccc2)N(C)C(=O)[C@@H](CC(C)C)NC(=O)C[C@@H](C(=O)N2CCCCC2)NC(=O)[C@H](C(C)C)N(C)C(=O)[C@H](Cc2ccccc2)N(C)C(=O)[C@H](COC(C)(C)C)NC(=O)[C@H](CC(C)C)N(C)C(=O)CN(C)C1=O [pd471] ([dL][NMeF]L[NMeL]K(Ac)[Sar][NMeL]S(tBu)[NMeF][NMeV]D-Piperidide; lactam N-11) What is its recorded Papp A→B at 180 min?
# output 2.1

# input Consider the molecule shown here: CCCCCN1CC(=O)N[C@@H]([C@@H](C)O)C(=O)N(C)[C@@H](C)C(=O)N(C)[C@@H](CC(C)C)C(=O)N[C@@H](COC(C)(C)C)C(=O)N(C)[C@@H](Cc2ccccc2)C(=O)N(C)[C@@H](CC(C)C)C(=O)N[C@H](C(=O)N2CCCCC2)CC(=O)N[C@H](C)C(=O)N(C)[C@@H](Cc2ccccc2)C(=O)N[C@@H](C(C)C)C1=O [pd407] ([dA][NMeF]V[NPentylGly]T[NMeA][NMeL]S(tBu)[NMeF][NMeL]D-Piperidide; lactam N-11) What is its recorded Papp A→B at 180 min?
# output 3

# input Consider the molecule shown here: CCCC[C@@H](O)[C@@H]1NC(=O)[C@H](CC(C)C)N(C)C(=O)[C@H](Cc2ccccc2)N(C)C(=O)[C@H](C)NC(=O)[C@H](Cc2ccccc2)N(C)C(=O)[C@H](CC(C)C)N(C)C(=O)[C@H](C(C)C)NC(=O)[C@H](C)N(C)C(=O)C[C@@H](C(=O)N2CCCCC2)NC(=O)[C@H](CC(C)C)N(C)C(=O)CN(C)C1=O [pd469] ([NMeA]V[NMeL][NMeF]A[NMeF][NMeL][X12][Sar][NMeL]D-Piperidide; lactam N-11) What is its recorded Papp A→B at 180 min?
# output 2.5

# input Consider the molecule shown here: CC(=O)NCCCC[C@@H]1NC(=O)[C@H](CC(C)C)N(C)C(=O)[C@H](CC(C)C)NC(=O)[C@H](Cc2ccccc2)N(C)C(=O)[C@@H](C(C)C)NC(=O)C[C@@H](C(=O)N2CCCCC2)NC(=O)[C@H](C(C)C)N(C)C(=O)[C@H](Cc2ccccc2)N(C)C(=O)[C@H](COC(C)(C)C)NC(=O)[C@H](CC(C)C)N(C)C(=O)CN(C)C1=O [pd470] ([dV][NMeF]L[NMeL]K(Ac)[Sar][NMeL]S(tBu)[NMeF][NMeV]D-Piperidide; lactam N-11) What is its recorded Papp A→B at 180 min?
# output 2.1

# input Consider the molecule shown here: CC[C@H](C)[C@H]1C(=O)N[C@@H]([C@@H](C)O)C(=O)N(C)CC(=O)N(C)[C@@H](CC(C)C)C(=O)N[C@H](C(=O)N2CCCCC2)CC(=O)N(C)[C@@H](C)C(=O)N[C@@H](CCc2ccccc2Cl)C(=O)N(C)[C@@H](CC(C)C)C(=O)N(C)[C@@H](CC(C)C)C(=O)N[C@@H](C)C(=O)N(C)[C@@H](Cc2ccccc2)C(=O)N1C [pd352] ([NMeA][X14][NMeL][NMeL]A[NMeF][NMeI]T[Sar][NMeL]D-Piperidide; lactam N-11) What is its recorded Papp A→B at 180 min?
# output 1.4

# input Consider the molecule shown here: CCCCN1CC(=O)N(C)[C@@H](Cc2cccc(Cl)c2)C(=O)N[C@@H](CCC(=O)NS(C)(=O)=O)C(=O)N(C)[C@@H](CC(C)C)C(=O)N[C@@H]([C@@H](C)O)C(=O)N(CCCC)CC(=O)N(C)[C@@H](Cc2ccccc2)C(=O)N(C)[C@@H](CC(C)C)C(=O)N[C@@H](CC(C)C)C(=O)N(C)[C@@H](CC(C)C)C(=O)N[C@H](C(=O)N2CCCCC2)CC1=O [pd66] ([NBuGly][NMePhe(3-Cl)][Glu(NHSO2Me)][NMeL]T[NBuGly][NMeF][NMeL]L[NMeL]D-Piperidide; lactam N-11) What is its recorded Papp A→B at 180 min?
# output 0.09
